Recorded pEC50 values for a group of molecules are listed next.
biological target: UniProt Q96RI1; assay: FXR EC50 (FXR agonist activity reported with each example); assay type: cell-based
pEC50: −log10 of the molar value.
Metric Name: pEC50

Molecule: O=C(O)c1csc(OCC23CCC(COCc4c(-c5c(Cl)cccc5Cl)noc4C4CC4)(CC2)CC3)n1
Recorded Measurement: 6.13

Molecule: O=C(O)C1CC1c1noc(CC23CCC(OCc4c(-c5c(Cl)cncc5Cl)noc4C4CC4)(CC2)CC3)n1 (stereo not shown)
Recorded Measurement: 6.40

Molecule: O=C(O)c1cc(C(F)(F)F)cc(OCC23CCC(OCc4c(-c5c(Cl)cncc5Cl)noc4C4CC4)(CC2)CC3)n1
Recorded Measurement: 7.64

Molecule: O=C(O)c1cc(F)c2nc(C#CC34CCC(OCc5c(-c6c(Cl)cncc6Cl)noc5C5CC5)(CC3)CC4)sc2c1
Recorded Measurement: 6.74

Molecule: O=C(O)c1cc(C(F)(F)F)c2nccc(C34CCC(OCc5c(-c6c(Cl)cncc6Cl)noc5C5CC5)(CC3)CC4)c2c1
Recorded Measurement: 6.24

Molecule: COC(=O)c1cc(OC(F)F)cc(-c2noc(C34CCC(/C=C/c5c(-c6c(Cl)cncc6Cl)noc5C5CC5)(CC3)CC4)n2)c1
Recorded Measurement: 7.31

Molecule: COc1ccc(-c2noc(C34CCC(OCc5c(-c6c(Cl)cncc6Cl)noc5C5CC5)(CC3)CC4)n2)cc1C(=O)NS(C)(=O)=O
Recorded Measurement: 7.59

Molecule: CCOc1cc(OCC23CCC(OCc4c(-c5ccccc5C(F)(F)F)noc4C4CC4)(CC2)CC3)cnc1C(=O)O
Recorded Measurement: 6.27

Molecule: CC(C)Oc1cc(OCC23CCC(OCc4c(-c5c(Cl)cncc5Cl)noc4C4CC4)(CC2)CC3)cc(C(=O)O)c1
Recorded Measurement: 7.77

Molecule: O=C(O)c1cc(OCC2CC2)c2cc(OCC34CCC(OCc5c(-c6c(Cl)cncc6Cl)noc5C5CC5)(CC3)CC4)c(F)cc2n1
Recorded Measurement: 7.17

Molecule: O=C(O)c1ccc(OC2CCC2)c2nc(OCC34CCC(OCc5c(-c6c(Cl)cncc6Cl)noc5C5CC5)(CC3)CC4)ccc12
Recorded Measurement: 6.89

Molecule: COc1cc(C(=O)O)nc2ccc(C#CC34CCC(OCc5c(-c6c(Cl)cncc6Cl)noc5C5CC5)(CC3)CC4)cc12
Recorded Measurement: 7.24

Molecule: O=C(O)c1cnn(CC23CCC(OCc4c(-c5c(Cl)cccc5Cl)noc4C4CC4)(CC2)CC3)c1C(F)F
Recorded Measurement: 6.15

Molecule: Cc1nc(C#CC23CCC(OCc4c(-c5c(Cl)cncc5Cl)noc4C4CC4)(CC2)CC3)ccc1C(=O)O
Recorded Measurement: 6.52

Molecule: CN1CCN(c2nc(C(=O)O)cc3ccc(C#CC45CCC(OCc6c(-c7c(Cl)cncc7Cl)noc6C6CC6)(CC4)CC5)cc23)CC1
Recorded Measurement: 7.55

Molecule: O=C(O)c1cc(F)cc(-c2noc(C34CCC(OCc5c(-c6c(Cl)cccc6Cl)noc5C5CC5)(CC3)CO4)n2)c1
Recorded Measurement: 6.52

Molecule: FC(F)(F)Oc1ccccc1-c1noc(C2CC2)c1COC12CCC(/C=C/c3cccc(-c4nnn[nH]4)c3)(CC1)CC2
Recorded Measurement: 6.42

Molecule: COCCOc1cc(OCC23CCC(OCc4c(-c5c(Cl)cncc5Cl)noc4C4CC4)(CC2)CC3)cnc1C(=O)O
Recorded Measurement: 6.80

Molecule: O=C(O)c1ncc(OCC23CCC(OCc4c(-c5c(Cl)cncc5Cl)noc4C4CC4)(CC2)CC3)cc1OC1CCC1
Recorded Measurement: 7.55

Molecule: CS(=O)(=O)NC(=O)c1cc(C(F)(F)F)c2cc(OCC34CCC(OCc5c(-c6c(Cl)cncc6Cl)noc5C5CC5)(CC3)CC4)ccc2n1
Recorded Measurement: 7.72

Molecule: O=C(O)c1cnc(OCC23CCC(OCc4c(-c5c(Cl)cncc5Cl)noc4C4CC4)(CC2)CC3)cc1C(F)(F)F
Recorded Measurement: 7.82

Molecule: O=C(O)c1ccc2nc(OCC34CCC(C=Cc5c(-c6c(Cl)cccc6Cl)noc5C5CC5)(CC3)CC4)sc2c1
Recorded Measurement: 8.14

Molecule: COc1c(C(=O)O)cccc1-c1noc(C23CCC(/C=C/c4c(-c5c(Cl)cncc5Cl)noc4C4CC4)(CC2)CC3)n1
Recorded Measurement: 8.00

Molecule: O=C(O)c1ccc2cc(CCC34CCC(OCc5c(-c6c(Cl)cncc6Cl)noc5C5CC5)(CC3)CC4)ccc2n1
Recorded Measurement: 7.06

Molecule: O=C(O)c1ccc(N2CCOCC2)c2nc(C34CCC(OCc5c(-c6c(Cl)cncc6Cl)noc5C5CC5)(CC3)CC4)ccc12
Recorded Measurement: 7.44

====

Recorded pEC50 values for a group of compounds are listed next.
molecular target: FXR (Homo sapiens (Human), UniProt Q96RI1); test: transient human FXR/Gal4-luciferase reporter assay; format: cell-based; details: Gal4-hFXR LBD fusion in HEK293 reporter cells; relative to 8 μM GW-4064
Sequence (Q96RI1 262-486): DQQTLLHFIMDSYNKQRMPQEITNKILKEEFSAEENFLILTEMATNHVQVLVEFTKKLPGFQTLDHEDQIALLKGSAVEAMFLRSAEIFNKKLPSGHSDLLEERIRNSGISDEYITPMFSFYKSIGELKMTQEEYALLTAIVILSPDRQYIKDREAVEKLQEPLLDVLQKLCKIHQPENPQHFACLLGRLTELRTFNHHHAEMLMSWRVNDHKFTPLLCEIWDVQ
pEC50: −log10 of the molar value.

Compound: O=C(O)COCc1ccc(C#CC23CCC(OCc4c(-c5c(Cl)cncc5Cl)noc4C4CC4)(CC2)CC3)cn1 [Example 571]
pEC50: 6.57
--
Compound: CCn1nc(C(=O)O)cc1OCC12CCC(OCc3c(-c4c(Cl)cncc4Cl)noc3C3CC3)(CC1)CC2 [Example 537]
pEC50: 7.10
--
Compound: O=C(O)c1ccc2cc(/C=C/C34CCC(OCc5c(-c6c(Cl)cncc6Cl)noc5C5CC5)(CC3)CC4)ccc2n1 [Example 588]
pEC50: 7.06

====

Recorded log10 EC50 values for a group of compounds are listed next.
target: FXR (Homo sapiens (Human), UniProt Q96RI1); assay: transient human FXR/Gal4-luciferase reporter assay; assay type: cell-based; settings: Gal4-hFXR LBD fusion in HEK293 reporter cells; relative to 8 μM GW-4064
Metric Name: log10 EC50 (log10 of the value in nM)

Compound Smiles: CN1CCN(c2nc(C(=O)O)cc3cc(C#CC45CCC(OCc6c(-c7c(Cl)cncc7Cl)noc6C6CC6)(CC4)CC5)ccc23)CC1
log10 EC50: 2.30
//
Compound Smiles: O=C(O)c1cncc(/C=C/C23CCC(OCc4c(-c5c(Cl)cncc5Cl)noc4C4CC4)(CC2)CC3)c1
log10 EC50: 3.06
//
Compound Smiles: CCn1nc(C(=O)O)c(F)c1OCC12CCC(OCc3c(-c4c(Cl)cncc4Cl)noc3C3CC3)(CC1)CC2
log10 EC50: 2.54
//
Compound Smiles: Clc1cncc(Cl)c1-c1noc(C2CC2)c1COC12CCC(/C=C/c3ccc(Cc4nn[nH]n4)cc3)(CC1)CC2
log10 EC50: 2.33
//
Compound Smiles: O=C(O)CCc1ccc(/C=C/C23CCC(OCc4c(-c5c(Cl)cncc5Cl)noc4C4CC4)(CC2)CC3)cc1
log10 EC50: 2.20
//
Compound Smiles: O=C(O)c1cc(OCC23CCC(OCc4c(-c5c(Cl)cncc5Cl)noc4C4CC4)(CC2)CC3)nn1C1CC1
log10 EC50: 1.40
//
Compound Smiles: Cc1nc(NCC23CCC(OCc4c(-c5c(Cl)cccc5Cl)noc4C4CC4)(CC2)CC3)sc1CC(=O)O
log10 EC50: 2.93
//
Compound Smiles: O=C(O)c1cc2ccc(/C=C/C34CCC(OCc5c(-c6c(Cl)cncc6Cl)noc5C5CC5)(CC3)CC4)cc2c(N2CCOCC2)n1
log10 EC50: 1.26
